Molecular target: T1, Human GDF15 Fc (human, UniProt Q99988 195-308, limits assumed, biotinylated (EZ-Link Sulfo-NHS-Biotinylation Kit) in the SPR assay)
T1 construct: also called human GDF15-Fc fusion; biotinylated Human GDF15 Fc; not shown: Fc part
T1 sequence: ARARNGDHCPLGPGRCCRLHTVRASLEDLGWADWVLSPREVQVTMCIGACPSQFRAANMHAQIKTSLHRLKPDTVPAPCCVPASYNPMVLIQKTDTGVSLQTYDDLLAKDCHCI
Assay: BLI Octet; antigen on sensor, 100 nM Fab (monovalent)
Measured quantity: Kd (nM)
# output: bare number, implied unit nM

GDF15 antibody agent Clone M, Fab (Fab, V domains shown, Fab; CH1 and CL of the Fab not specified; also called Fab of Clone M) VH: QVQLVQSGAEVKKPGASVKVSCKASGYTFDSYGINWVRQAPGQGLEWMGWISAYSGDTAYAQELQGRVTMTTDTSTSTAYMELRSLRSDDTAVYYCVRDTQYGGSPYWGQGTLVTVSS VL: EIVMTQSPATLSVSPGERATLSCRASQSVSSNLAWYQQKPGQAPRLLIYGASTRATGIPARFSGSGSGTEFTLTISSLQSEDFAVYYCQQYNNWPITFGGGTKVEIK = 3.88
GDF15 antibody agent Clone J, Fab (Fab, V domains shown, Fab; CH1 and CL of the Fab not specified; also called Fab of Clone J) VH: QVQLVQSGAEVKKPGASVKVSCKASGYTFTSYGINWVRQAPGQGLEWMGWIDAYSGSTNYAQKLQGRVTMTTDTSTSTAYMELRSLRSDDTAVYYCARGPGQYADVDVWGQGTMVTVSS VL: DIQMTQSPSSVSASVGDRVTITCRASQGISSWLAWYQQKPGKAPKLLIYAASSLQSGVPSRFSGSGSGTDFTLTISSLQPEDFATYYCQQANSFPITFGGGTKVEIK = 1.28
GDF15 antibody agent Clone T, Fab (Fab, V domains shown, Fab; CH1 and CL of the Fab not specified; also called Fab of Clone T) VH: QVQLVQSGAEVKKPGASVKVSCKASGYTFTSYGINWVRQAPGQGLEWMGWITAYSGDTNYAQKLQGRVTMTTDTSTSTAYMELRSLRSDDTAVYYCARGPGQYADVDVWGQGTMVTVSS VL: DIQMTQSPSSVSASVGDRVTITCRASQGISSWLAWYQQKPGKAPKLLIYAASSLQSGVPSRFSGSGSGTDFTLTISSLQPEDFATYYCQQASQFPITFGGGTKVEIK = 0.613
GDF15 antibody agent Clone L, Fab (Fab, V domains shown, Fab; CH1 and CL of the Fab not specified; also called Fab of Clone L) VH: QVQLVQSGAEVKKPGASVKVSCKASGYTFASYDIIWVRQAPGQGLEWMGWISALSGDTVYAQKLQGRVTMTTDTSTSTAYMELRSLRSDDTAVYYCARTRHDTSGIRFDYWGQGTLVTVSS VL: DIQMTQSPSSVSASVGDRVTITCRASQGIDSWLAWYQQKPGKAPKLLIYAASSLQSGVPSRFSGSGSGTDFTLTISSLQPEDFATYYCQQVHSFPITFGGGTKVEIK = 1.58

Read off the recorded Kd for GDF15 antibody agent Clone P, Fab (Fab, V domains shown, Fab; CH1 and CL of the Fab not specified; also called Fab of Clone P) VH: QVQLVQSGAEVKKPGATVKVSCKASGYTFDSYGIHWVRQAPGQGLEWMGWITAYSGDTVYAQKLQGRVTMTTDTSTSTAYMELRSLRSDDTAVYYCARESGQTSSALGPWGQGTLVTVSS VL: DIQMTQSPSSVSASVGDRVTITCRASQGISRWLAWYQQKPGKAPKLLIYAASSLQSGVPSRFSGSGSGTDFTLTISSLQPEDFATYYCQQGASFPLTFGGGTKVEIK 3.68
